// provenance: patent EP4682141A1

- subject_of_test: EP1 (Homo sapiens)
- Sequence (P34995 whole entry): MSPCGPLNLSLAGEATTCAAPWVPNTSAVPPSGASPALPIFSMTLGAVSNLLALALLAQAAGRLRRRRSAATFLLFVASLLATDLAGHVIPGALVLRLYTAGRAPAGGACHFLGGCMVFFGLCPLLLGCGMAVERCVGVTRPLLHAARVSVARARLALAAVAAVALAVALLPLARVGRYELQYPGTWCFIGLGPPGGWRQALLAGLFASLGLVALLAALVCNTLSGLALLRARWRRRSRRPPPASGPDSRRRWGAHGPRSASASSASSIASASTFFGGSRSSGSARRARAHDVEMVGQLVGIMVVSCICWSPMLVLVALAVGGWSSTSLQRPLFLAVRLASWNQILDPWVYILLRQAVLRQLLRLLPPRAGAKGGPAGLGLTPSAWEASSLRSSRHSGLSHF
- experiment_description: agonist activity on human EP1 receptor (intracellular calcium concentration, EP1-CHO cells)
assay_readout: EC50

>>> recorded_result("C=C(CCOC)C(O)/C=C/[C@H]1CC[C@@H]2Oc3c(ccc(C(=O)O)c3Cl)CC[C@@H]21 (some centres unmarked) [Example 26-19]")
"> 10 µM"
>>> recorded_result("Cc1c(C(=O)O)ccc2c1O[C@H]1C[C@@H](O)[C@H](/C=C/C(O)C3(c4ccc(F)cc4)CCC3)[C@H]1CC2 (some centres unmarked) [Example 9-5]")
"> 10 µM"
>>> recorded_result("Cc1c(C(=O)O)ccc2c1O[C@H]1C[C@@H](O)[C@H](/C=C/C[C@@](C)(O)CCCC(F)(F)F)[C@H]1CC2 [Example 12]")
"3.5 µM"
>>> recorded_result("CC(C)(c1ccccc1)C(O)/C=C/[C@H]1CC[C@@H]2Oc3c(ccc(C(=O)O)c3F)CC[C@@H]21 (some centres unmarked) [Example 25-7]")
"> 10 µM"
>>> recorded_result("CCC(CCC(C)C)C(O)/C=C/[C@@H]1[C@H]2CCc3ccc(C(=O)O)c(C)c3O[C@H]2C[C@H]1O (some centres unmarked) [Example 10]")
"> 10 µM"
>>> recorded_result("O=C(O)c1ccc2c(c1)O[C@H]1CC[C@H](/C=C/C(O)C3(c4ccccc4F)CCC3)[C@H]1CC2 (some centres unmarked) [Example 26-9]")
"> 10 µM"
>>> recorded_result("O=C(O)c1ccc2c(c1Cl)O[C@H]1CC[C@H](/C=C/C(O)C3(c4ccccc4F)CCC3)[C@H]1CC2 (some centres unmarked) [Example 26-17]")
"> 10 µM"
>>> recorded_result("Cc1c(C(=O)O)ccc2c1O[C@H]1C[C@@H](O)[C@H](/C=C/C[C@@](C)(O)CCC(F)=C(F)F)[C@H]1CC2 [Example 11]")
"> 10 µM"
>>> recorded_result("O=C(O)c1ccc2c(c1F)O[C@H]1C[C@@H](F)[C@H](/C=C/C(O)C3(c4ccccc4)COC3)[C@H]1CC2 (some centres unmarked) [Example 28-2]")
"> 10 µM"
>>> recorded_result("O=C(O)c1ccc2c(c1Cl)O[C@H]1CC[C@H](/C=C/C(O)C3(c4ccccc4)COC3)[C@H]1CC2 (some centres unmarked) [Example 26-21]")
"> 10 µM"
>>> recorded_result("O=C(O)c1ccc2c(c1)O[C@H]1C[C@@H](O)[C@H](/C=C/C(O)C3(c4ccc(F)cc4)CCC3)[C@H]1CC2 (some centres unmarked) [Example 7-13]")
"6.3 µM"
>>> recorded_result("O=C(O)c1ccc2c(c1F)O[C@H]1C[C@@H](Cl)[C@H](/C=C/C(O)C3(c4ccccc4)CCO3)[C@H]1CC2 (some centres unmarked) [Example 32-6]")
"> 10 µM"
>>> recorded_result("Cc1c(C(=O)O)ccc2c1O[C@H]1CO[C@H](/C=C/C(O)C3(Oc4ccccc4)CCC3)[C@H]1CC2 (some centres unmarked) [Example 41-2]")
"> 10 µM"
>>> recorded_result("O=C(O)c1ccc2c(c1Cl)O[C@H]1C[C@@H](O)[C@H](/C=C/C(O)C(F)(F)c3c(F)cccc3F)[C@H]1CC2 (some centres unmarked) [Example 8]")
"2.7 µM"

----------
- subject_of_test: EP1 (Homo sapiens)
- experiment_description: agonist activity on human EP1 receptor (intracellular calcium concentration, EP1-CHO cells)
assay_readout: EC50

>>> recorded_result("CCCC[C@H](C)C(O)/C=C/[C@H]1OC[C@@H]2Oc3c(ccc(C(=O)O)c3C)CC[C@@H]21 (stereo partly drawn)")
"> 10 µM"
>>> recorded_result("CCCC[C@H](CC)C(O)/C=C/[C@H]1CC[C@@H]2Oc3c(ccc(C(=O)O)c3Cl)CC[C@@H]21 (stereo partly drawn)")
"> 10 µM"
>>> recorded_result("C[C@@H](c1ccc(F)cc1F)[C@H](O)/C=C/[C@@H]1[C@H]2CCc3ccc(C(=O)O)c(F)c3O[C@H]2C[C@H]1O")
"3.5 µM"
>>> recorded_result("Cc1c(C(=O)O)ccc2c1O[C@H]1C[C@@H](O)[C@H](/C=C/CC(C)(O)CCC(C)C)[C@H]1CC2 (stereo partly drawn)")
"> 10 µM"
>>> recorded_result("O=C(O)c1ccc2c(c1F)O[C@H]1C[C@@H](Cl)[C@H](/C=C/C(O)C3(c4ccccc4F)COC3)[C@H]1CC2 (stereo partly drawn)")
"> 10 µM"
>>> recorded_result("CC(c1ccccc1F)C(O)/C=C/[C@@H]1[C@H]2CCc3ccc(C(=O)O)c(F)c3O[C@H]2C[C@H]1O (stereo partly drawn)")
"7.3 µM"
